Property: growth at 0.01 µM; scope: individual compounds
system: UACC-257; test: Growth inhibition of human UACC257 cells assessed as cell growth at 0.01 uM incubated for 48 hrs by sulforhodamine B assay relative to control; format: functional; details: UACC-257, 48 h, read-out: Activity

COc1cc(Cl)cc(-c2nn(-c3cccc(NC(=O)c4cccc(C(F)(F)F)c4)c3)cc2-c2ccncc2)c1 | 91%
O=C(Nc1cccc(-n2cc(-c3ccncc3)c(-c3cc(O)cc(Cl)c3)n2)c1)Nc1ccc(Cl)c(Cl)c1 | 96%

Input: Value lookup for growth at 0.01 µM; key = "O=C(Nc1cccc(-n2cc(-c3ccncc3)c(-c3cc(O)cc(Cl)c3)n2)c1)c1ccc(N2CCOCC2)c(C(F)(F)F)c1"
Output: 91%

Input: Value lookup for growth at 0.01 µM; key = "COc1cc(Cl)cc(-c2nn(-c3cccc(NC(=O)Nc4cc(C(F)(F)F)cc(C(F)(F)F)c4)c3)cc2-c2ccncc2)c1"
Output: 96%

###

system: HOP-92; assay: Growth inhibition of human HOP92 cells incubated for 48 hrs by sulforhodamine B assay; assay type: functional, cell-based; details: HOP-92, 48 h
ATTRIBUTE MEASURED: IC50 (nM)
Please give a number only; it is taken to be in nM.

Input: Value lookup for IC50; key = CNC(=O)c1cc(Oc2ccc(NC(=O)Nc3ccc(Cl)c(C(F)(F)F)c3)cc2)ccn1 [SORAFENIB]
Output: 1580

###

system: HT-29; experiment: Growth inhibition of human HT-29 cells assessed as cell growth at 0.01 uM incubated for 48 hrs by sulforhodamine B assay relative to control; type: functional; conditions: HT-29, 48 h, read-out: Activity
Property: growth at 0.01 µM; scope: individual molecules
Please give a number only; it is taken to be in %.

O=C(Nc1cccc(-n2cc(-c3ccncc3)c(-c3cc(O)cc(Cl)c3)n2)c1)c1cc(C(F)(F)F)cc(C(F)(F)F)c1 | 96

Input: Value lookup for growth at 0.01 µM; key = "COc1cc(Cl)cc(-c2nn(-c3cccc(NC(=O)Nc4ccc(Cl)c(C(F)(F)F)c4)c3)cc2-c2ccncc2)c1"
Output: 101

Input: Value lookup for growth at 0.01 µM; key = "COc1cc(Cl)cc(-c2nn(-c3cccc(NC(=O)c4ccc(N5CCOCC5)c(C(F)(F)F)c4)c3)cc2-c2ccncc2)c1"
Output: 100

Input: Value lookup for growth at 0.01 µM; key = "O=C(Nc1cccc(-n2cc(-c3ccncc3)c(-c3cc(O)cc(Cl)c3)n2)c1)Nc1ccc(Cl)c(C(F)(F)F)c1"
Output: 98

###

Property: growth at 0.1 µM; scope: individual compounds
system: SN12C; assay: Growth inhibition of human SN12C cells assessed as cell growth at 0.1 uM incubated for 48 hrs by sulforhodamine B assay relative to control; format: functional; conditions: read-out: Activity
Please give a number only; it is taken to be in %.

Input: Record "COc1cc(Cl)cc(-c2nn(-c3cccc(NC(=O)Nc4cccc(C(F)(F)F)c4)c3)cc2-c2ccncc2)c1" : what is its growth at 0.1 µM with SN12C?
Output: 96

###

system: HT-29; test: Growth inhibition of human HT-29 cells incubated for 48 hrs by sulforhodamine B assay; format: functional, cell-based; conditions: HT-29, 48 h, read-out: LC50 (the source's name)
Property: CC50; scope: individual compounds
Please give a number only; it is taken to be in µM.

Input: Value lookup for CC50; key = "O=C(Nc1cccc(-n2cc(-c3ccncc3)c(-c3cc(O)cc(Cl)c3)n2)c1)Nc1ccc(Cl)c(Cl)c1"
Output: 7.9

Input: Value lookup for CC50; key = "O=C(Nc1cccc(-n2cc(-c3ccncc3)c(-c3cc(O)cc(Cl)c3)n2)c1)Nc1ccc(Cl)c(C(F)(F)F)c1"
Output: 95.9
